assay.system: T1, human GLP-1 receptor (human), P43220
T1 chain: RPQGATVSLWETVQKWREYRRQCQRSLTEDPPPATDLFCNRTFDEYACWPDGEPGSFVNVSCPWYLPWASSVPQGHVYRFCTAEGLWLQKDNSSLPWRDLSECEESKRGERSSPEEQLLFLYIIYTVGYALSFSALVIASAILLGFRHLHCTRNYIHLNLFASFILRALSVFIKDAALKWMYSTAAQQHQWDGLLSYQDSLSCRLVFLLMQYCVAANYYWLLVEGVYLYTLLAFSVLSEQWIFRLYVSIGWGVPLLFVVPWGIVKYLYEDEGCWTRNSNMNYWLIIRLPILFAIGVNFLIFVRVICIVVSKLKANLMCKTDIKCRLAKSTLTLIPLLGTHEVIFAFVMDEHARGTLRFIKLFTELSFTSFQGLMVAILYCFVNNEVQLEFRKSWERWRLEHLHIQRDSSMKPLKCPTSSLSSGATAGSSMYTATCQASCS
test.method.notes: SPA, displacement of [125I]-GLP-1 from hGLP-1R membranes, 0.1% bacitracin
Starred links: 1 amine or outer side, 2 acyl side, 3 side chain; linkers in the order of their positions; H or OH if unused. Non-standard residues stand in square brackets, D forms with d. Groups on a side chain read outwards from the residue. No end group written: not given here. *: point of attachment. C20 diacid = O=C(O)CCCCCCCCCCCCCCCCCCC(=O)*; γGlu = O=C(O)[C@H](CCC(=O)[*:2])N[*:1]; αMeL = CC(C)C[C@](C)(N)C(=O)O; Orn = NCCC[C@H](N)C(=O)O; AEEA = NCCOCCOCC(=O)O; Aib = CC(C)(N)C(=O)O
reported.property: pKi
Kindly note that pKi refers to -log10 of the concentration in mol/L and answer with the value alone.

Given Y[Aib]EGTFISDYSI[αMeL]LD[Orn]IHQ[Aib]DFVEYK([AEEA-AEEA-γGlu-C20 diacid])LEGGPSSGAPPPS-NH2 [Example 6] , state its recorded pKi.
6.24
